These measurements were taken from ChEMBL document CHEMBL3588784.

# PROTOCOL: Octanol/buffer partition co-efficient, log D of the compound at pH 7.4 after 30 mins by shake-flask method
# Type: physicochemical
REPORTED_METRIC: logD at 0.5 h
Returns: the value as a bare number; no unit string appended.

Query :: Could you share which logD at 0.5 h value was measured for CN(C)CC(=O)N1CCC(n2ccc(-c3cnc(N)c(-n4nnc5ccccc54)n3)n2)CC1 ?
Result :: 1.8

Query :: For the compound CN(C)CC(=O)N1CCC(n2ncc(-c3cnc(N)c(-n4nnc5ccccc54)n3)n2)CC1 , what logD at 0.5 h is on record?
Result :: 1.9

Query :: Fill blank: measured logD at 0.5 h of the compound CN(C)CC(=O)N1CCC(c2cn(C)c(-c3cnc(N)c(-n4nnc5ccccc54)n3)n2)CC1 is ____.
Result :: 1.3

Query :: Which measured logD at 0.5 h value corresponds to CN(C)CC(=O)N1CCC(n2cc(-c3cnc(N)c(-n4nnc5ccccc54)n3)cn2)CC1 ?
Result :: 1.7

Query :: Please report the recorded logD at 0.5 h for CN(C)CC(=O)N1CCC(c2cc(-c3cnc(N)c(-n4nnc5ccccc54)n3)n(C)n2)CC1 .
Result :: 1.8

Query :: Give its logD at 0.5 h value. Item: CN(C)CC(=O)N1CCC(c2nc(-c3cnc(N)c(-n4nnc5ccccc54)n3)n(C)n2)CC1
Result :: 0.9

Query :: Which logD at 0.5 h is reported for this compound? CN(C)CC(=O)N1CCC(c2nc(-c3cnc(N)c(-n4nnc5ccccc54)n3)nn2C)CC1
Result :: 1
